# Test system: A549
# assay: Antiproliferative activity against human A549 cells assessed as inhibition of cell growth incubated for 48 hrs by CCK-8 assay
# Type: functional, cell-based
# studyConditions: Homo sapiens, A549, 48 h
pIC50 by entry:
Expect pIC50 as a plain number equal to -log10 of the molar concentration.

Given the compound CCOC(=O)C[C@H]1CSC[C@]1(C(=O)OCC)n1cnc2c(Cl)nc(Cl)nc21 (racemic) and test system A549, the measured pIC50 is 4.34

Now for the compound whose pIC50 we want.
Given the compound `CCOC(=O)C[C@@H]1CSC[C@@]1(C(=O)OCC)n1cnc2c(Cl)nc(Cl)nc21` and test system A549, the measured pIC50 is 4.38

Ref: ChEMBL document CHEMBL5523757
